Cited source for all entries: PubChem BioAssay (NCI)

Test system: SN12C renal
Test: NCI-60 one-dose screen, 48 h
Settings: 10 µM unless noted
The panel holds about 83,000 compounds, 20% with a hit somewhere; the sample as a whole holds those more often. Activity calls are given as the source filed them. How the source made its calls: active means growth percent below 10; inactive means the rest.
Valid outcomes are listed here; reply with one: Y (active), N (inactive)

Look over these answered cases.
Clc1ccc(Nc2nnc(COc3ccccc3)c3ccccc23)cc1
N
O=C(c1ccc(-c2ccccc2)cc1)c1ccc([N+](=O)[O-])cc1
N
C[C@@H]1CCC[C@H]1CC(N)C(=O)O (stereo not given in full)
N
Nc1c(C(=O)Nc2ccncc2)sc2nc3c(cc12)CCCCCC3
N
Cn1c(-c2ccc(Br)cc2)c(O)c(=O)c2c(F)cccc21
N
Cc1ccc(-c2nc(N3CCNCC3)c3oc(-c4ccccc4)nc3n2)cc1
Y

Now consider the entry below.
Assay outcome for `O=C(CSc1nc2ccc([N+](=O)[O-])cc2[nH]1)Nc1ccc(F)cc1` : what was it?
N

====

Test system: NCI-H522 lung
Assay: NCI-60 one-dose screen, 48 h (100 = growth as untreated, 0 = no growth, -100 = all killed)
Conditions: 10 µM unless noted
The panel holds about 83,000 compounds, 20% with a hit somewhere; the sample as a whole holds those more often.
Outcome: 1.0 for growth of at least 30%; 0.0 for anything lower.

Consider the worked cases shown below.
Fc1ccc(-c2nn(-c3ccccc3)cc2-c2nc3ccccc3o2)cc1
1.0
COC(=O)c1ccc2c(c1)C(=O)c1c-2n(CCCN)c(=O)c2cc([N+](=O)[O-])ccc12
0.0
CN(Cc1ccc(C(F)(F)F)cc1)CC(O)C(=O)Nc1ccc(Cl)cc1 (stereo not drawn)
0.0
Cn1ccnc1C(=O)C(=O)Nc1ccc(CC(=O)Nc2ccccc2)cc1
1.0
CC[C@@H](C(=O)[C@@H](C)[C@@H](O)[C@H](C)[C@@H]1O[C@@H]([C@@H](CC)C(=O)NCCc2ccc(F)cc2)CC[C@@H]1C)C1O[C@]2(C=CC(=O)[C@]3(CC[C@@](C)([C@H]4CC[C@](O)(CC)[C@H](C)O4)O3)O2)[C@H](C)C[C@@H]1C (stereo partly drawn)
1.0
COc1cc(-c2cc(-c3cccs3)c(C#N)c(N3CCOCC3)n2)cc(OC)c1OC
1.0

# evaluate next
Please tell me: is the molecule `CCCc1cc(NC)nc(S(=O)(=O)CC)n1` at or over 30% in terms of growth?
1.0

====

Test system: 786-0 renal
Assay: NCI-60 one-dose screen, 48 h
Conditions: 10 µM unless noted
This is part of a sample that, as a whole, favours compounds with a hit. Of some 83,000 tested, about 20% had one in any assay. Activity calls are given as the source filed them. Rule for the calls: active = growth percent below 10; inactive = the rest.
Permitted responses: 1 (active), -1 (inactive)

Look over these answered cases.
COC(C(=O)[C@@H](O)[C@@H](C)O)[C@@H]1Cc2cc3cc(O[C@H]4C[C@@H](O[C@H]5C[C@@H](O)[C@H](O)C(C)O5)[C@H](O)C(C)O4)cc(O)c3c(O)c2C(=O)[C@H]1O[C@H]1C[C@@H](O[C@H]2C[C@@H](O[C@H]3C[C@@H](OC)[C@H](O)C(C)O3)[C@@H](O)C(C)O2)[C@H](O)C(C)O1 (stereo not given in full)
-1
C#CCOc1cccc(Nc2ncnc3ccc(NC(=O)CCl)cc23)c1
1
COC(C(=O)[C@@H](O)[C@@H](C)O)[C@@H]1Cc2cc3cc(O[C@H]4C[C@@H](O[C@H]5C[C@@H](O)[C@H](O)C(C)O5)[C@H](O)C(C)O4)c(C)c(O)c3c(O)c2C(=O)[C@H]1O[C@H]1C[C@@H](O[C@H]2C[C@@H](O[C@H]3C[C@@H](O)[C@H](OC)C(C)O3)[C@@H](O)C(C)O2)[C@H](O)C(C)O1 (stereo not given in full)
1
COC1=CC(c2ccc[nH]2)=N/C1=C\c1[nH]c(C)c(C(=O)OCc2ccccc2)c1C
1

Now look at this one.
Please let me know the test result on file for N#CC1CCc2c(c(-c3cn[nH]c3C(F)(F)F)nc3c(F)cc4[nH]ncc4c23)C1 (stereo not given) .
-1
